- measured_on: human recombinant KAT-II (Homo sapiens (Human), UniProt Q8N5Z0)
- Sequence (Q8N5Z0 30-425): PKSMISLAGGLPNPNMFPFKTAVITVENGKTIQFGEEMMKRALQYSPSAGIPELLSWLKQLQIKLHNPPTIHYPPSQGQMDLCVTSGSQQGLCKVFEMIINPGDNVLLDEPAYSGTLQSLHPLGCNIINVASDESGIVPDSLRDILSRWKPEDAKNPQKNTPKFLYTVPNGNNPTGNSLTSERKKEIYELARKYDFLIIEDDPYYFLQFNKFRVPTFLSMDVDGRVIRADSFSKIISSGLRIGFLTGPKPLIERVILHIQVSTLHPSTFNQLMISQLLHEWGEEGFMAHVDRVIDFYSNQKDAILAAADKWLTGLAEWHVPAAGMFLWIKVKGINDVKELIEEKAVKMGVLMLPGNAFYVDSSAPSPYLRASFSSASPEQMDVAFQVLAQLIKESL
- assay_comment: KAT-II inhibitory test
- details: 3.0 μmol/L kynurenine, 37° C. for 1 hr, kynurenic acid by HPLC
readout_type: IC50 (nM)
Give the quantity in nM, number only.

Cc1cc2sc(N3CCC[C@@H]3C(=O)NC3(c4ccccc4)CC3)nc2nc1C = 530
O=C(NCc1ccccc1)[C@H]1CCCN1c1nc2ncc(OC3COC3)cc2s1 = 270
Cc1cnc2nc([C@H]3CCCN3C(=O)NC3(c4ccccc4)CC3)sc2c1 = 7400

Q: Return reported IC50; argument: `CCc1cnc2nc(N3CCC[C@@H]3C(=O)NCc3ccc(F)cc3)sc2n1`
Ans: 300
